Cited source for all entries: patent US20240343720A1

Listed next: entries and their corresponding AUC(0-t).
- ASSAY PROCEDURE: Mouse brain/blood ratio test
- Format: in vivo
- TEST SETTINGS: male, mouse, plasma, po; ICR mice, i.g. (10 mg/kg); read-out: Plasma AUC0-t
PARAMETER MEASURED: AUC(0-t) (µg·h/mL)

- COMPOUND: "CC(C)C[C@](C)(N)COc1ccc(-c2ccnc(C(F)F)c2)nc1C(F)F [LX-9211, reference compound]"
  VAL: 6.64
- COMPOUND: "C=C(C)C[C@](C)(N)COc1ccc(-c2ccnc(C(F)F)c2)nc1C(F)F [Compound 3]"
  VAL: 0.572

---

- ASSAY PROCEDURE: Pharmacokinetic test in beagle dogs
- Assay type: in vivo
- TEST SETTINGS: male, dog, iv, plasma, i.v. (1 mg/kg), read-out: Vdss

- MOLECULE: "COC(=O)Nc1cc(-c2ccc(OC[C@@](C)(N)CC(C)(C)F)c(C(F)F)n2)ccn1"
  MEASURE UNIT: "L/kg"
  Vd: 23.6
- MOLECULE: "CC(C)C[C@](C)(N)COc1ccc(-c2ccnc(C(F)F)c2)nc1C(F)F [LX-9211, reference compound]"
  MEASURE UNIT: "L/kg"
  Vd: 9.08

---

- ASSAY PROCEDURE: Pharmacokinetic test in beagle dogs
- Format: in vivo
- TEST SETTINGS: male, dog, iv, plasma, i.v. (1 mg/kg)
Item-by-item account of AUC(0-t)
PARAMETER MEASURED: AUC(0-t) (ng·h/mL)

- COMPOUND: "CC(C)C[C@](C)(N)COc1ccc(-c2ccnc(C(F)F)c2)nc1C(F)F [LX-9211, reference compound]"
  VAL: 751
- COMPOUND: "COC(=O)Nc1cc(-c2ccc(OC[C@@](C)(N)CC(C)(C)F)c(C(F)F)n2)ccn1"
  VAL: 398

---

Recorded pIC50, one value per entry.
- MEASURED ON: hERG potassium ion channel (Homo sapiens (Human))
- Sequence (Q12809 whole entry): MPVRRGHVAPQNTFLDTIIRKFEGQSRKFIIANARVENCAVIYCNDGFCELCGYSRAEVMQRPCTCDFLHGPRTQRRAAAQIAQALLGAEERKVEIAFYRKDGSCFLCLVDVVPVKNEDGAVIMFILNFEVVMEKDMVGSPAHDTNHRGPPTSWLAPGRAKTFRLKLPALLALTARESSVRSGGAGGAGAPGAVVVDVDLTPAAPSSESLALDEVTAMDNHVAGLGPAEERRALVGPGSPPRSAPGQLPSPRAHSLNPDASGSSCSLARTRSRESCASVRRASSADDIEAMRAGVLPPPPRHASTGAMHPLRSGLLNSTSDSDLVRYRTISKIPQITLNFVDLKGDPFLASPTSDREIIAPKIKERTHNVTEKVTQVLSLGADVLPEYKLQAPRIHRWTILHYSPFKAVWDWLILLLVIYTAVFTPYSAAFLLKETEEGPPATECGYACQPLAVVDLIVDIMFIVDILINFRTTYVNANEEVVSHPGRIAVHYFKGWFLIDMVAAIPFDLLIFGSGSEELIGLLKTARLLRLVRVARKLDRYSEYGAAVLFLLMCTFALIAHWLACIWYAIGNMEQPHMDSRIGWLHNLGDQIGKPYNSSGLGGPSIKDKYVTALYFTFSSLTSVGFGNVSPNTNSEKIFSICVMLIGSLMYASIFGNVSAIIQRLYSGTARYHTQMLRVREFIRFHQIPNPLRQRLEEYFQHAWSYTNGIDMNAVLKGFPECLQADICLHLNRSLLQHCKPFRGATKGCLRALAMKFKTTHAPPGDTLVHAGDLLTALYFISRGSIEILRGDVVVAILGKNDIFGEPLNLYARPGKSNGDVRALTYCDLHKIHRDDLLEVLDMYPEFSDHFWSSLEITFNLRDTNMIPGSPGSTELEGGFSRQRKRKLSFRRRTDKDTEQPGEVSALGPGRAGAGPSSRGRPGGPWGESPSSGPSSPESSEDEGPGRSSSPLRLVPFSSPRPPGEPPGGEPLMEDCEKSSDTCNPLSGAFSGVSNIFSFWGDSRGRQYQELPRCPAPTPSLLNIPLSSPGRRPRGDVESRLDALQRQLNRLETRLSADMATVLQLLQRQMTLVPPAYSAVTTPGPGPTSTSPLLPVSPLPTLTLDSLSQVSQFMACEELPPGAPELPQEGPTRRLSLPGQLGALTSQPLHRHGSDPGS
- ASSAY PROCEDURE: Test for hERG potassium ion channel (manual whole cell patch-clamp)
- TEST SETTINGS: CHO cells stably expressing hERG; read-out: IC50 (hERG potassium channel current)
pIC50: −log10 of the molar value.

- COMPOUND: "C=C(C)C[C@](C)(N)COc1ccc(-c2ccnc(C(F)F)c2)nc1C(F)F"
  pIC50: 5.06
- COMPOUND: "COC(=O)Nc1cc(-c2ccc(OC[C@@](C)(N)CC(C)(C)F)c(C(F)F)n2)ccn1"
  pIC50: 4.62
- COMPOUND: "CC(C)C[C@](C)(N)COc1ccc(-c2ccnc(C(F)F)c2)nc1C(F)F [LX-9211, reference compound]"
  pIC50: 5.74

---

- ASSAY PROCEDURE: Pharmacokinetic test in beagle dogs
- Format: in vivo
- TEST SETTINGS: male, dog, po, plasma, i.g. (3 mg/kg)

- COMPOUND: "CC(C)C[C@](C)(N)COc1ccc(-c2ccnc(C(F)F)c2)nc1C(F)F [LX-9211, reference compound]"
  MEASURE UNIT: "ng·h/mL"
  AUC(0-t): 500
- COMPOUND: "COC(=O)Nc1cc(-c2ccc(OC[C@@](C)(N)CC(C)(C)F)c(C(F)F)n2)ccn1 [Compound 19]"
  MEASURE UNIT: "ng·h/mL"
  AUC(0-t): 1350

---

- ASSAY PROCEDURE: Mouse brain/blood ratio test
- Format: in vivo
- TEST SETTINGS: male, mouse, brain/plasma, po; ICR mice, i.g. (10 mg/kg)
PARAMETER MEASURED: Kp

- COMPOUND: "CC(C)C[C@](C)(N)COc1ccc(-c2ccnc(C(F)F)c2)nc1C(F)F [LX-9211, reference compound]"
  VAL: 16.6
- COMPOUND: "C=C(C)C[C@](C)(N)COc1ccc(-c2ccnc(C(F)F)c2)nc1C(F)F"
  VAL: 64.5

---

- MEASURED ON: UniProt:Q2M2I8
- Sequence (Q2M2I8 27-365): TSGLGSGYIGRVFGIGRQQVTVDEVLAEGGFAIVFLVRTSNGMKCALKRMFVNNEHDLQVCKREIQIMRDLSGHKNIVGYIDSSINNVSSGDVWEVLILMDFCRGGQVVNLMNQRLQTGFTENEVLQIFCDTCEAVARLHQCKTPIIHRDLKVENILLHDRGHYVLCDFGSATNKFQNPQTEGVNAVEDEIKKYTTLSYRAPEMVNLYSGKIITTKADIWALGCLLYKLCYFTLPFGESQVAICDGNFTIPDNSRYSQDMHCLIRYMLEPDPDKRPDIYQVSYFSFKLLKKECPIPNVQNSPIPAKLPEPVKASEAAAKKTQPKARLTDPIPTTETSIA
pIC50: −log10 of the molar value.

- COMPOUND: "C=C(C)C[C@](C)(N)COc1ccc(-c2ccnc(NC(=O)[C@H]3C[C@H]3F)c2)cc1C#N"
  pIC50: 7.92
- COMPOUND: "C[C@@](N)(COc1ccc(-c2ccnc(C(F)F)c2)nc1C(F)F)CC1CC1"
  pIC50: 7.96
- COMPOUND: "COC(=O)Nc1cc(-c2cc(C(F)(F)F)c(OCC(C)(N)C=C(C)C)cn2)ccn1 (centres unmarked)"
  pIC50: 7.37
- COMPOUND: "COC(=O)Nc1cc(-c2cc(C(F)F)c(OC[C@@](C)(N)CC(C)(C)F)cn2)ccn1"
  pIC50: 7.79
- COMPOUND: "C=C(C)C[C@](C)(N)COc1ncc(-c2ccnc(NC(=O)OC)c2)cc1C(F)F"
  pIC50: 7.57
- COMPOUND: "C=C(C)C[C@](C)(N)COc1ccc(-c2ccnc(NC(=O)C3CC(F)(F)C3)c2)cc1C#N"
  pIC50: 7.65
- COMPOUND: "COC(=O)Nc1cc(-c2cnc(OC[C@@](C)(N)CC(C)(C)F)c(C(F)F)c2)ccn1"
  pIC50: 8.02
- COMPOUND: "C=C(C)C[C@](C)(N)COc1ccc(-c2ccnc(NC(C)=O)c2)cc1C#N"
  pIC50: 8.20
